# systemUnderTest: SIRT1 (Homo sapiens)
# Construct: His-tag (N); made in house; host or cells: E. coli BL21(DE3), T7-promoter vector
# runDescription: Mass spectrometry based assay for modulators of SIRT1 activity (deacetylation of p53-based acetylated peptide)
# Type: biochemical
# conditionLabel: percent maximum fold activation of SIRT1
# Source text: A mass spectrometry based assay was used to identify modulators of SIRT1 activity. The mass spectrometry based assay utilizes a peptide having 20 amino acid residues as follows: Ac-EE-K(biotin)-GQSTSSHSK(Ac)NleSTEG-K(5TMRi)-EE-NH2 (SEQ ID NO: 1) wherein K(Ac) is an acetylated lysine residue and Nle is a norleucine. The peptide is labeled with the fluorophore 5TMR (excitation 540 nm/emission 580 nm) at the C-terminus. The sequence of the peptide substrate is based on p53 with several modifications. […]
Quick reference for Emax among some compounds

Use the examples below as a reference point.
>>> datavalue("O=C(Nc1ncc(CN2CCOCC2)s1)c1cccn2cc(-c3cccc(OC(F)(F)F)c3)nc12 [Compound 135]")
"> 200%"
>>> datavalue("O=C(Nc1nccs1)c1cccn2cc(-c3cccc(CN4CCCC4)c3)nc12 [Compound 256]")
"> 200%"

# get_value(readout='Emax', item= O=C(Nc1ccccn1)c1cccn2nc(-c3cc(Cl)ccc3C(F)(F)F)nc12 [Compound 224] ) < 200%

Okay, and O=C(Nc1cccc(CN2CCOCC2)n1)c1cccn2cc(-c3cccc(C(F)(F)F)c3)nc12 [Compound 160] ? > 200%

----------
# systemUnderTest: SIRT1 (Homo sapiens)
# Construct: His-tag (N); made in house; host or cells: E. coli BL21(DE3), T7-promoter vector
# Sequence (Q96EB6 1-747): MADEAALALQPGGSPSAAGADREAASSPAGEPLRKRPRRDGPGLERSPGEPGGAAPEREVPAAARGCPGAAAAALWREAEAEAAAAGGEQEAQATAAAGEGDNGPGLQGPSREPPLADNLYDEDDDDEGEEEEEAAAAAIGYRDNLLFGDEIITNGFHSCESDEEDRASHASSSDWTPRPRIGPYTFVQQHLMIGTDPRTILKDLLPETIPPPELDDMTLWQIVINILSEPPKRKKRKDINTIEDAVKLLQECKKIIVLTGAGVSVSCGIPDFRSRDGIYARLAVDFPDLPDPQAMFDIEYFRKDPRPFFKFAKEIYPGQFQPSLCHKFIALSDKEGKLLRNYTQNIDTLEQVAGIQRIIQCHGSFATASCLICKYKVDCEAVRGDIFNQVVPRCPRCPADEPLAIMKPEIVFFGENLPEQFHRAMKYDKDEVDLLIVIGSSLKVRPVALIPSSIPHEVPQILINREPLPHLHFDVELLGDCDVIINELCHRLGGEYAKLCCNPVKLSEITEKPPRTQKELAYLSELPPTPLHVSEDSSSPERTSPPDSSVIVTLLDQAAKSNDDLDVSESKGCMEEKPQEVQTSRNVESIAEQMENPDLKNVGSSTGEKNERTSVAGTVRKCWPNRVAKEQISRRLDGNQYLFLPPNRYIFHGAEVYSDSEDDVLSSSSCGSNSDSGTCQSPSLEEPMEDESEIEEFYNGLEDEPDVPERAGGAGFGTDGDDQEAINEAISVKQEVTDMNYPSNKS
# runDescription: Mass spectrometry based assay for modulators of SIRT1 activity (deacetylation of p53-based acetylated peptide)
# Type: biochemical
# conditionLabel: percent maximum fold activation of SIRT1
Emax for assorted molecules

The examples below pair each entry with its known result.
>>> datavalue("O=C(Nc1cccn2cc(-c3cccc(-c4ccccc4)c3)nc12)c1cscn1")
"< 200%"
>>> datavalue("O=C(Nc1cccc(CN2CCOCC2)n1)c1cccn2cc(-c3cccc(OC(F)(F)F)c3)nc12")
"> 200%"
>>> datavalue("Cc1ccc(-c2cn3ccnc(C(=O)Nc4nccs4)c3n2)cn1")
"< 200%"
>>> datavalue("Cc1ncccc1-c1nc2c(C(=O)Nc3ccccn3)cccn2n1")
"< 200%"
>>> datavalue("O=C(Nc1nc(CN2CCOCC2)cs1)c1nccn2cc(-c3ccccc3C(F)(F)F)nc12")
"> 200%"
>>> datavalue("O=C(Nc1nc(CN2CCOCC2)cs1)c1cccn2cc(-c3cc(F)ccc3F)nc12")
"> 200%"
>>> datavalue("O=C(Nc1nc(CN2CCOCC2)cs1)c1cccn2cc(-c3cc(F)c(F)c(F)c3)nc12")
"< 200%"
>>> datavalue("O=C(Nc1ccccn1)c1nccn2cc(-c3ccc(N4CCCC4)cc3)nc12")
"< 200%"
>>> datavalue("O=C(Nc1cccc(CN2CCOCC2)n1)c1cccn2cc(-c3ccc(F)cc3C(F)(F)F)nc12")
"> 200%"

We now examine a further molecule.
# get_value(readout='Emax', item= O=C(Nc1cccc(CN2CCOCC2)n1)c1nccn2cc(-c3ccc(F)cc3C(F)(F)F)nc12 ) > 200%
